# inhibition annotations
experimental target: Serine/threonine-protein kinase pim-1 (Homo sapiens)
assay procedure: Inhibition of PIM1 at 1 uM

// known answers, use as guide
| sample smiles | inhibition |
| --- | --- |
| O=C(c1ccc(-c2cnc3c(c2)N(Cc2cc(Cl)ccc2C(F)(F)F)CCN3)cc1)N1CCC(N2CCCC2)CC1 | < 50% |
| O=C(O)c1ccc(-c2cnc3c(c2)N(Cc2cc(Cl)ccc2C(F)(F)F)CCN3)cc1 | < 50% |
| COC1CCN(C(=O)c2ccc(-c3cnc4c(c3)N(Cc3cc(Cl)ccc3C(F)(F)F)CCN4)cc2)CC1 | < 50% |
| CN1CCN(c2ccc(-c3cnc4c(c3)N(Cc3c(F)ccc(F)c3Cl)CCN4)cn2)CC1 | < 50% |

Q: Entry `FC(F)(F)c1ccc(Cl)cc1CN1CCNc2ncc(-c3ccnc(N4CCNCC4)c3)cc21` has what inhibition?
Result: < 50%

Q: Which measured inhibition value corresponds to `CC(=O)N1CCN(c2cc(-c3cnc4c(c3)N(Cc3cc(Cl)ccc3C(F)(F)F)CCN4)ccn2)CC1` ?
Result: < 50%

Q: Which inhibition reading was recorded for the compound `CN1CCN(c2ccc(-c3cnc4c(c3)N(Cc3cc(Cl)ccc3C(F)(F)F)CCN4)cn2)CC1` ?
Result: < 50%

Q: Report inhibition for `CN1CCN(c2ccc(-c3cnc4c(c3)N(Cc3cc(Cl)ccc3Cl)CCN4)cn2)CC1` please.
Result: < 50%

Q: Give the measured inhibition of `O=C(c1ccc(-c2cnc3c(c2)N(Cc2cc(Cl)ccc2C(F)(F)F)CCN3)cc1)N1CCCCC1` .
Result: < 50%

Q: // returns reported inhibition for input `CN1CCN(c2ccc(-c3cnc4c(c3)N(Cc3cc(F)ccc3F)CCN4)cn2)CC1`
Result: < 50%

====

inhibition: recorded values
experimental target: Serine/threonine-protein kinase DCLK2 (Homo sapiens)
assay procedure: Inhibition of DCAMKL2 at 1 uM

Please review the entries below; each comes with its answer.
| sample smiles | experimental target | result |
| --- | --- | --- |
| CC(=O)N1CCN(c2cc(-c3cnc4c(c3)N(Cc3cc(Cl)ccc3C(F)(F)F)CCN4)ccn2)CC1 | Serine/threonine-protein kinase DCLK2 (Homo sapiens) | < 50% |
| CN1CCN(c2ccc(-c3cnc4c(c3)N(Cc3cc(Cl)ccc3C(F)(F)F)CCN4)cn2)CC1 | Serine/threonine-protein kinase DCLK2 (Homo sapiens) | < 50% |
| CN1CCN(c2ccc(-c3cnc4c(c3)N(Cc3cc(F)ccc3F)CCN4)cn2)CC1 | Serine/threonine-protein kinase DCLK2 (Homo sapiens) | < 50% |
| CN1CCN(c2ccc(-c3cnc4c(c3)N(Cc3c(F)ccc(F)c3Cl)CCN4)cn2)CC1 | Serine/threonine-protein kinase DCLK2 (Homo sapiens) | < 50% |
| FC(F)(F)c1ccc(Cl)cc1CN1CCNc2ncc(-c3ccnc(N4CCNCC4)c3)cc21 | Serine/threonine-protein kinase DCLK2 (Homo sapiens) | 96% |

Kindly consider the entry below.
Q: Tell me the measured inhibition of `CN1CCN(c2ccc(-c3cnc4c(c3)N(Cc3cc(Cl)ccc3Cl)CCN4)cn2)CC1` , please.
Result: < 50%

====

Collected inhibition values appear next to each entry.
System: Tyrosine-protein kinase ABL1 (Homo sapiens), P00519 [Y253F]
assay procedure: Inhibition of ABL1 Y253F mutant at 1 uM

| sample smiles | inhibition |
| --- | --- |
| CN1CCN(c2ccc(-c3cnc4c(c3)N(Cc3cc(Cl)ccc3C(F)(F)F)CCN4)cn2)CC1 | < 50% |
| CN1CCN(c2ccc(-c3cnc4c(c3)N(Cc3cc(F)ccc3F)CCN4)cn2)CC1 | < 50% |
| CC(=O)N1CCN(c2cc(-c3cnc4c(c3)N(Cc3cc(Cl)ccc3C(F)(F)F)CCN4)ccn2)CC1 | < 50% |

Q: What inhibition value was documented for this molecule, `CN1CCN(c2ccc(-c3cnc4c(c3)N(Cc3c(F)ccc(F)c3Cl)CCN4)cn2)CC1` ?
Result: 82%

Q: What inhibition value was documented for this molecule, `CN1CCN(c2ccc(-c3cnc4c(c3)N(Cc3cc(Cl)ccc3Cl)CCN4)cn2)CC1` ?
Result: < 50%

====

System: Receptor-type tyrosine-protein kinase FLT3 (Homo sapiens), P36888 [D835Y]
Sequence (whole entry): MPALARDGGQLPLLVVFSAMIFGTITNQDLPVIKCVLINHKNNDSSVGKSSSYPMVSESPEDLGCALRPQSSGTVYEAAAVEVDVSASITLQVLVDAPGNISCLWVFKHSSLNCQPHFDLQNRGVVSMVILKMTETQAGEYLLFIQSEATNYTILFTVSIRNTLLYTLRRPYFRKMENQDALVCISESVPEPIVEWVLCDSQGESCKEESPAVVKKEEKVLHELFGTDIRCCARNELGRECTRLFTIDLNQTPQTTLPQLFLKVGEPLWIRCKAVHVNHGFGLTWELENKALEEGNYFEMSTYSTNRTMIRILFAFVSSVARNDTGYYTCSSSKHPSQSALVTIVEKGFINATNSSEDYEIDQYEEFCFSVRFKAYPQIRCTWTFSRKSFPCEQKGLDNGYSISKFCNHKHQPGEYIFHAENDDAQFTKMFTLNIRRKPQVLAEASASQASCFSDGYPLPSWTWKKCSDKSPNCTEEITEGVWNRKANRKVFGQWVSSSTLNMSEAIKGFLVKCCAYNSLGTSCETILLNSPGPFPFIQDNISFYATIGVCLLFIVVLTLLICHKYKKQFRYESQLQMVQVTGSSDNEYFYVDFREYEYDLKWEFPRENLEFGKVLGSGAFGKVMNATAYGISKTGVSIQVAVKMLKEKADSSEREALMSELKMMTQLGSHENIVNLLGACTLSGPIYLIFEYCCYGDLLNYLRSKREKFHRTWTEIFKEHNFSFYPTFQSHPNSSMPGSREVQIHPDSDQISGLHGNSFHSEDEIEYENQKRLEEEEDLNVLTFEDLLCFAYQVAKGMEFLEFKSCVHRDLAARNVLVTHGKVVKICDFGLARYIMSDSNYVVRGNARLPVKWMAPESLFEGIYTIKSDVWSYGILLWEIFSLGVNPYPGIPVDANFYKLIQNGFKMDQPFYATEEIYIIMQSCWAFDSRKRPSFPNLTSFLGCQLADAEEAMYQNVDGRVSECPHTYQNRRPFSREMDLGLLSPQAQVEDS
assay procedure: Inhibition of FLT3 D835Y mutant at 1 uM
measured parameter: inhibition (%)

| sample smiles | inhibition, % |
| --- | --- |
| CN1CCN(c2ccc(-c3cnc4c(c3)N(Cc3cc(Cl)ccc3C(F)(F)F)CCN4)cn2)CC1 | 85 |
| CN1CCN(c2ccc(-c3cnc4c(c3)N(Cc3cc(F)ccc3F)CCN4)cn2)CC1 | 80.8 |
| FC(F)(F)c1ccc(Cl)cc1CN1CCNc2ncc(-c3ccnc(N4CCNCC4)c3)cc21 | 93 |
| CN1CCN(c2ccc(-c3cnc4c(c3)N(Cc3cc(Cl)ccc3Cl)CCN4)cn2)CC1 | 87 |
| COC1CCN(C(=O)c2ccc(-c3cnc4c(c3)N(Cc3cc(Cl)ccc3C(F)(F)F)CCN4)cc2)CC1 | 66.7 |
| CC(=O)N1CCN(c2cc(-c3cnc4c(c3)N(Cc3cc(Cl)ccc3C(F)(F)F)CCN4)ccn2)CC1 | 87 |
| O=C(c1ccc(-c2cnc3c(c2)N(Cc2cc(Cl)ccc2C(F)(F)F)CCN3)cc1)N1CCC(N2CCCC2)CC1 | 75.5 |

====

experimental target: NUAK family SNF1-like kinase 1 (Homo sapiens) (UniProt O60285)
Sequence (O60285 whole entry): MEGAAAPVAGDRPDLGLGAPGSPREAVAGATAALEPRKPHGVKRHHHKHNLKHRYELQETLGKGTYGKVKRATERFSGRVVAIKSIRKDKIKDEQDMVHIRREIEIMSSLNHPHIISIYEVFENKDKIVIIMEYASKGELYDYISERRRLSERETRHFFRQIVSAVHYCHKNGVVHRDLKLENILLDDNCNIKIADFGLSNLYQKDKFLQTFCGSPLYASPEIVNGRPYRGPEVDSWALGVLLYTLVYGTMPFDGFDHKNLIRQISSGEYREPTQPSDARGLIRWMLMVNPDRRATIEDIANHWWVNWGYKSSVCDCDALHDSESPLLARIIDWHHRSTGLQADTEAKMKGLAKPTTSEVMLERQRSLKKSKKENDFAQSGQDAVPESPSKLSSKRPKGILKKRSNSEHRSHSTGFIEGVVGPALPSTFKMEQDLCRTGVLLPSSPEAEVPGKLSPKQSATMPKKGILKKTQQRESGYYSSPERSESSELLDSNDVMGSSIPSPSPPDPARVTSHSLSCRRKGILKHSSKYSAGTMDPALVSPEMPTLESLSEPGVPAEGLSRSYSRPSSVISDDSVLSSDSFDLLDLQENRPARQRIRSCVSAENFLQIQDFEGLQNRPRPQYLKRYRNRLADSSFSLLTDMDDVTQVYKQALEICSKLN
assay procedure: Inhibition of ARK5 at 1 uM
measured parameter: inhibition (%)

| sample smiles | result number |
| --- | --- |
| CN1CCN(c2ccc(-c3cnc4c(c3)N(Cc3cc(F)ccc3F)CCN4)cn2)CC1 | 96 |
| CN1CCN(c2ccc(-c3cnc4c(c3)N(Cc3cc(Cl)ccc3C(F)(F)F)CCN4)cn2)CC1 | 92 |
| FC(F)(F)c1ccc(Cl)cc1CN1CCNc2ncc(-c3ccnc(N4CCNCC4)c3)cc21 | 88 |
| CN1CCN(c2ccc(-c3cnc4c(c3)N(Cc3cc(Cl)ccc3Cl)CCN4)cn2)CC1 | 94 |
| CC(=O)N1CCN(c2cc(-c3cnc4c(c3)N(Cc3cc(Cl)ccc3C(F)(F)F)CCN4)ccn2)CC1 | 90 |
| CN1CCN(c2ccc(-c3cnc4c(c3)N(Cc3c(F)ccc(F)c3Cl)CCN4)cn2)CC1 | 92 |

====

Parameter inhibition: see the listing below.
experimental target: Tyrosine-protein kinase FRK (Homo sapiens)
assay procedure: Inhibition of FRK at 1 uM

Below, each entry is followed by its recorded inhibition result.
| sample smiles | measured parameter | result |
| --- | --- | --- |
| CN1CCN(c2ccc(-c3cnc4c(c3)N(Cc3cc(Cl)ccc3Cl)CCN4)cn2)CC1 | inhibition | < 50% |
| FC(F)(F)c1ccc(Cl)cc1CN1CCNc2ncc(-c3ccnc(N4CCNCC4)c3)cc21 | inhibition | < 50% |
| O=C(O)c1ccc(-c2cnc3c(c2)N(Cc2cc(Cl)ccc2C(F)(F)F)CCN3)cc1 | inhibition | < 50% |
| CC(=O)N1CCN(c2cc(-c3cnc4c(c3)N(Cc3cc(Cl)ccc3C(F)(F)F)CCN4)ccn2)CC1 | inhibition | < 50% |

Field: next molecule
Q: Name the recorded inhibition for `O=C(c1ccc(-c2cnc3c(c2)N(Cc2cc(Cl)ccc2C(F)(F)F)CCN3)cc1)N1CCC(N2CCCC2)CC1` .
Result: < 50%
